FYI, the data here is from PubChem BioAssay (NCI).

# System: SW-620 colon
# assay_name: NCI tumour cell line growth inhibition, 48 h; in the data active = GI50 below about 0.43 µM; inactive = the rest
Possible outcomes: class 1 = active, class 0 = inactive

compound: Cc1ccc(C(=O)Nc2ccc(CN3CCN(C)CC3)c(C(F)(F)F)c2)cc1C#Cc1cnc(N)c2ccccc12
label_class: class 1
--
compound: Fc1ccc(-c2nn3ncccc3c2-c2ccnc(Nc3ccc4c(c3)OCCO4)n2)cc1
label_class: class 0
--
compound: O=C(/C(=C/c1cccc([N+](=O)[O-])c1)c1ccccc1)c1ccccc1
label_class: class 0
--
compound: CC1(C)N=C(N)N=C(N)N1c1ccc(OCc2ccc(S(=O)(=O)F)c(Cl)c2)c(Cl)c1
label_class: class 1
--
compound: Cc1ccc(NC(=O)c2sc3nc(C)c(C(O)c4ccccc4)cc3c2N)cc1 (configuration not stated)
label_class: class 1
--
compound: Cc1ccc(NC(=O)NCCCOc2ccc(N3C(N)=NC(N)=NC3(C)C)cc2Cl)cc1S(=O)(=O)F
label_class: class 0
--
compound: COC(=O)C12C3C4C1C1C2C3C41NC(=O)c1csc([C@@H](C[C@H](C(C)C)N(C)C(=O)[C@@H](NC(=O)[C@H]2CCCCN2C)C2CC2)OC(C)=O)n1 (some centres not stated)
label_class: class 1
--
compound: N#Cc1cccc(NC(=O)c2cc(-c3ccc(F)cc3F)ccc2O)c1
label_class: class 0
--
compound: COc1ccc(C2SCC(=O)N2NC(=O)Nc2c(C)nc3ccccn23)cc1 (configuration not stated)
label_class: class 0
--
compound: C=C[C@H]1C[C@@H]2C[C@@H]3[C@H]4C/C=C\C(=O)NCCCC5NC(=O)C(=C(O)/C=C/[C@@H]4CC(=O)[C@H]3[C@@H]2[C@H]1C)C5=O (some centres not stated)
label_class: class 0
--
compound: Nc1nc(-c2cccc(Cl)c2)c(-c2ccc3ncccc3n2)s1
label_class: class 0
--
compound: N.N.O=C([O-])P(=O)([O-])[O-].[Na+].[Pt+4]
label_class: class 0
--
compound: COc1ccc(-c2nnc(COc3ccc(NC(=O)Nc4ccc(Cl)c(C(F)(F)F)c4)cc3F)o2)cc1
label_class: class 0
--
compound: C=C1C(=O)O[C@H]2[C@H]1CC/C(COC(=O)c1cc3ccccc3s1)=C\CC[C@@]1(C)O[C@@H]21
label_class: class 0
--
compound: COC(=O)c1c(C)[nH]c(/C=C2\N=C(c3ccc[nH]3)C=C2OC)c1C
label_class: class 1
--
compound: Cc1cc(O)c(C(C)(C)C)cc1Sc1cc(C(C)(C)C)c(O)cc1C
label_class: class 0
--
compound: O=C(O)[C@@H]1CCCCN1Cc1cc2cc3c(cc2c2cc(OCc4ccccc4)ccc12)OCO3
label_class: class 0

---

# System: SK-OV-3 ovarian
# assay_name: NCI tumour cell line growth inhibition, 48 h
# Lookup of reported TGI keyed by entry
metric: TGI (µM)

molecule: N#C/C(=C\c1cc2ccccc2c2ccccc12)c1ccccc1
tested_target: SK-OV-3 ovarian
metric: TGI
censoring_qualifier: =
numeric_value: 39
//
molecule: COc1ccc(OC)c(C(=O)c2oc3ccc(Br)cc3c2N)c1
tested_target: SK-OV-3 ovarian
metric: TGI
censoring_qualifier: =
numeric_value: 7.07
//
molecule: CC(C)CCCC(=O)CCCCCCC(=O)CCN(O)C(=O)C(N)CO (centres undefined)
tested_target: SK-OV-3 ovarian
metric: TGI
censoring_qualifier: =
numeric_value: 35.6
//
molecule: CC(=O)N[C@@H](Cc1ccc(O)cn1)C(=O)NCc1cccc(Cl)c1
tested_target: SK-OV-3 ovarian
metric: TGI
censoring_qualifier: >
numeric_value: 100
//
molecule: CCOC(=O)CN=C1NNS(=O)(=O)c2ccccc21
tested_target: SK-OV-3 ovarian
metric: TGI
censoring_qualifier: >
numeric_value: 100
//
molecule: Clc1ccccc1/C=C/c1cscn1
tested_target: SK-OV-3 ovarian
metric: TGI
censoring_qualifier: >
numeric_value: 100
//
molecule: CCCCN1CSC(=S)N(Cc2ccccc2)C1
tested_target: SK-OV-3 ovarian
metric: TGI
censoring_qualifier: >
numeric_value: 100
//
molecule: COc1cc(NS(=O)(=O)c2ccc(-c3cnc(C4CC4)o3)cc2)ccc1F
tested_target: SK-OV-3 ovarian
metric: TGI
censoring_qualifier: =
numeric_value: 34.6
//
molecule: Cc1ccc2c(c1)C1(C)OC(C=CC1=O)O2 (centres undefined)
tested_target: SK-OV-3 ovarian
metric: TGI
censoring_qualifier: =
numeric_value: 12
//
molecule: CCc1ccc(Nc2ccc([N+](=O)[O-])cc2[N+](=O)[O-])cc1
tested_target: SK-OV-3 ovarian
metric: TGI
censoring_qualifier: >
numeric_value: 100
//
molecule: Cc1[nH]n(C2=NCCN2)c(=O)c1Cc1ccccc1
tested_target: SK-OV-3 ovarian
metric: TGI
censoring_qualifier: >
numeric_value: 100
//
molecule: CN(C)C(c1ccccc1)C(O)c1ccccc1 (centres undefined)
tested_target: SK-OV-3 ovarian
metric: TGI
censoring_qualifier: >
numeric_value: 100
//
molecule: C=C(C)C(=O)OC1CCC2(C)C(CCC3C2CCC2(C)C(c4ccc(=O)oc4)CC4OC432)C1 (centres undefined)
tested_target: SK-OV-3 ovarian
metric: TGI
censoring_qualifier: =
numeric_value: 99.8
//
molecule: Cc1ccc(NC(=O)NCCCOc2ccc(N3C(N)=NC(N)=NC3(C)C)cc2Cl)cc1S(=O)(=O)F
tested_target: SK-OV-3 ovarian
metric: TGI
censoring_qualifier: >
numeric_value: 100
//
molecule: CS(=O)(=O)c1cc(=O)c2ccccc2s1
tested_target: SK-OV-3 ovarian
metric: TGI
censoring_qualifier: =
numeric_value: 32.3
//
molecule: COc1ccc(C2SCC(=O)N2NC(=O)Nc2c(C)nc3ccccn23)cc1 (centres undefined)
tested_target: SK-OV-3 ovarian
metric: TGI
censoring_qualifier: =
numeric_value: 47.6
//
molecule: O=C(/C=C/c1c(O)ccc2ccccc12)c1ccccc1
tested_target: SK-OV-3 ovarian
metric: TGI
censoring_qualifier: >
numeric_value: 100
//
molecule: Cc1ccc(C(=O)Nc2ccc(CN3CCN(C)CC3)c(C(F)(F)F)c2)cc1C#Cc1cnc(N)c2ccccc12
tested_target: SK-OV-3 ovarian
metric: TGI
censoring_qualifier: =
numeric_value: 7.9
//
molecule: COc1cc2c(cc1OC)CCc1cc(OC)c(OC)cc1CC2
tested_target: SK-OV-3 ovarian
metric: TGI
censoring_qualifier: >
numeric_value: 100
//
molecule: Clc1ccc(-c2c(C3=NCCCN3)nnn2-c2ccc(Cl)cc2)cc1
tested_target: SK-OV-3 ovarian
metric: TGI
censoring_qualifier: >
numeric_value: 100
//
molecule: C=C1CC[C@@H]2[C@](C)(COC(C)=O)[C@H](OC(C)=O)CC[C@@]2(C)[C@@H]1CC(Nc1ccc(S(=O)(=O)Nc2ncccn2)cc1)C1=CCOC1=O (some centres undefined)
tested_target: SK-OV-3 ovarian
metric: TGI
censoring_qualifier: =
numeric_value: 18.3
//
molecule: O=C(Nc1ccc(Cl)cc1Cl)C(=O)C(C(=O)c1ccncc1)C1OC(=O)c2ccccc21 (centres undefined)
tested_target: SK-OV-3 ovarian
metric: TGI
censoring_qualifier: >
numeric_value: 100
//
molecule: C/C=C(/C)C(=O)O[C@H]1C[C@@H]2[C@@H](O)c3occ(C)c3C[C@]2(C)[C@@H](C)C1
tested_target: SK-OV-3 ovarian
metric: TGI
censoring_qualifier: =
numeric_value: 30.9
//
molecule: COc1cc(O)c2c(c1)OCC(Cc1ccc(O)cc1)C2=O (centres undefined)
tested_target: SK-OV-3 ovarian
metric: TGI
censoring_qualifier: >
numeric_value: 100
//
molecule: C=C[C@H]1C[C@@H]2C[C@@H]3[C@H]4C/C=C\C(=O)NCCCC5NC(=O)C(=C(O)/C=C/[C@@H]4CC(=O)[C@H]3[C@@H]2[C@H]1C)C5=O (some centres undefined)
tested_target: SK-OV-3 ovarian
metric: TGI
censoring_qualifier: =
numeric_value: 0.606
//
molecule: CC(=O)OC1(C)C=CC(=O)C=C1
tested_target: SK-OV-3 ovarian
metric: TGI
censoring_qualifier: >
numeric_value: 100
//
molecule: CC(=O)Nc1ccc2[nH]c(C(=O)N3CC(CCl)c4c3cc(N)c3ccccc43)cc2c1 (centres undefined)
tested_target: SK-OV-3 ovarian
metric: TGI
censoring_qualifier: =
numeric_value: 2.18
//
molecule: NCCCn1c2c(c3ccc([N+](=O)[O-])cc3c1=O)C(=O)c1cc(Br)ccc1-2
tested_target: SK-OV-3 ovarian
metric: TGI
censoring_qualifier: =
numeric_value: 2.03
//
molecule: CCOP(=O)(CN1CCNCCNCC1)OCC
tested_target: SK-OV-3 ovarian
metric: TGI
censoring_qualifier: >
numeric_value: 100
//
molecule: C=C(CC[C@@H](C)[C@H]1CC[C@@]2(C)C3=C(CC[C@]12C)[C@@]1(C)CC[C@H](O)[C@@H](C)C1CC3)C(C)C (some centres undefined)
tested_target: SK-OV-3 ovarian
metric: TGI
censoring_qualifier: =
numeric_value: 2.79
//
molecule: O=C(Cc1ccccc1)N/N=C/c1ccccc1O
tested_target: SK-OV-3 ovarian
metric: TGI
censoring_qualifier: >
numeric_value: 100
//
molecule: C/C=C(\C)CC/C=C/CO[Si](C)(C)C(C)(C)C
tested_target: SK-OV-3 ovarian
metric: TGI
censoring_qualifier: >
numeric_value: 100
//
molecule: Cc1ccc(NC(=S)N/N=C(/c2ccccc2)c2ccccn2)cc1
tested_target: SK-OV-3 ovarian
metric: TGI
censoring_qualifier: =
numeric_value: 9.29
//
molecule: Cc1ccccc1N=Nc1ccc(N/N=C2/CCCNC2=O)c(C)c1
tested_target: SK-OV-3 ovarian
metric: TGI
censoring_qualifier: >
numeric_value: 100
//
molecule: CCOC(=O)C(O)(NC(=O)c1ccc(F)cc1)C(F)(F)F (centres undefined)
tested_target: SK-OV-3 ovarian
metric: TGI
censoring_qualifier: >
numeric_value: 100
//
molecule: O=C(O)[C@@H]1CCCCN1Cc1cc2cc3c(cc2c2cc(OCc4ccccc4)ccc12)OCO3
tested_target: SK-OV-3 ovarian
metric: TGI
censoring_qualifier: =
numeric_value: 34.3
//
molecule: CC1(C)CC(=O)C(/C=N/c2nc(-c3ccccc3)cs2)=C(O)C1
tested_target: SK-OV-3 ovarian
metric: TGI
censoring_qualifier: >
numeric_value: 100
//
molecule: COC(=O)CCc1cc(O)c2c(c1)C(C(=O)OC)C(c1ccc(O)c(O)c1)O2 (centres undefined)
tested_target: SK-OV-3 ovarian
metric: TGI
censoring_qualifier: >
numeric_value: 93
//
molecule: O=c1[nH]c(=O)n(C2OC(CO)C(O)C(O)C2O)cc1F (centres undefined)
tested_target: SK-OV-3 ovarian
metric: TGI
censoring_qualifier: >
numeric_value: 100
//
molecule: FC(F)(F)c1nc(-c2ccccc2)oc1Sc1nnc(Sc2oc(-c3ccccc3)nc2C(F)(F)F)s1
tested_target: SK-OV-3 ovarian
metric: TGI
censoring_qualifier: >
numeric_value: 100
//
molecule: COc1ccc(C2=Nn3c(nnc(Cc4ccc(Cl)cc4)c3=O)SC2)cc1
tested_target: SK-OV-3 ovarian
metric: TGI
censoring_qualifier: >
numeric_value: 100
//
molecule: COc1cc(OC)c2c(=O)c(OC)c(-c3ccc4c(c3)OCO4)oc2c1
tested_target: SK-OV-3 ovarian
metric: TGI
censoring_qualifier: =
numeric_value: 71.7
//
molecule: COc1ccc(N2C(=O)C3ON(C(C(N)=O)c4ccccc4)C(c4cc5ccccc5c5ccccc45)C3C2=O)cc1 (centres undefined)
tested_target: SK-OV-3 ovarian
metric: TGI
censoring_qualifier: >
numeric_value: 50
//
molecule: CC(=O)N1C/C(=C\c2ccc(N(C)C)cc2)C(=O)/C(=C/c2ccc(N(C)C)cc2)C1
tested_target: SK-OV-3 ovarian
metric: TGI
censoring_qualifier: >
numeric_value: 100
